Assay: qHTS RealTime-Glo MT Cell Viability Assay in HepG2 cells - 16 hour (AID 1224885); further: nearly all actives have a fitted effect of over 50% in size
Settings: RealTime-Glo luminescence; series mostly up to 76.8 µM
Results filed as inconclusive are left out. Active and inactive are the calls of the source. The call rests on the fitted dose curve; in most records, active means well fitted cell-killing curve with a large enough effect in the repeat runs; inconclusive means weak or mixed curves; inactive means flat fitted curve, though single readings scatter.
Output constraint: value belongs to 1 = active, 0 = inactive

Query: recorded result category for `CC[C@]1(O)C[C@H]2CN(CCc3c([nH]c4ccccc34)[C@@](C(=O)OC)(c3cc4c(cc3OC)N(C=O)[C@H]3[C@@](O)(C(=O)OC)[C@H](OC(C)=O)[C@]5(CC)C=CCN6CC[C@]43[C@@H]65)C2)C1` in this test
0

Query: recorded result category for `NC(=O)c1ccncc1` in this test
0

Query: recorded result category for O=C1C(=O)c2ccccc2C(O)=C1C1CCC(c2ccc(Cl)cc2)CC1 (stereo not given) in this test
0

Query: recorded result category for CN1CCCN=C1COC(=O)C(O)(c1ccccc1)C1CCCCC1 (stereo not given) in this test
0

Query: recorded result category for Nc1cccc2c1CN(C1CCC(=O)NC1=O)C2=O (stereo not given) in this test
0

Query: recorded result category for CCC1NC(=O)c2cc(S(N)(=O)=O)c(Cl)cc2N1 (stereo not given) in this test
0

Query: recorded result category for `O=C(O)CCCCCCCCCCCBr` in this test
0

Query: recorded result category for CC1CC(C)C(=O)C1=O (stereo not given) in this test
0

Query: recorded result category for CCCCC(CC)CN (stereo not given) in this test
0

Query: recorded result category for `CC(CO)CO` in this test
0

Query: recorded result category for CCOC(=O)OC(C)OC(=O)[C@@H]1N2C(=O)[C@@H](NC(=O)[C@H](N)c3ccccc3)[C@H]2SC1(C)C (stereo not given in full) in this test
0

Query: recorded result category for `CC(=O)[C@H]1[C@H](C#N)C[C@H]2[C@@H]3CC=C4C[C@@H](O)CC[C@]4(C)[C@H]3CC[C@@]21C` in this test
0

Query: recorded result category for `CC(=O)Oc1ccc([N+](=O)[O-])cc1CCl` in this test
0

Query: recorded result category for `C[C@]1(Cn2ccnn2)[C@H](C(=O)O)N2C(=O)C[C@H]2S1(=O)=O` in this test
0

Query: recorded result category for CCC(C)COC(C)=O (stereo not given) in this test
0

Query: recorded result category for `C1COC1` in this test
0

Query: recorded result category for CCOC(=O)C1=C(C)NC(C)=C(C(=O)OC)C1c1cccc(Cl)c1Cl (stereo not given) in this test
1

Query: recorded result category for CCCCN1CCCC1C(=O)Nc1c(C)cc(C)cc1C (stereo not given) in this test
0

Query: recorded result category for `CC(C)(C)C(=O)C(=O)O` in this test
0

Query: recorded result category for `CC(C)C=O` in this test
0

Query: recorded result category for `CCCCCCCCCCC(=O)O` in this test
0

Query: recorded result category for `CN1CC(=O)N2[C@H](c3ccc4c(c3)OCO4)c3[nH]c4ccccc4c3C[C@@H]2C1=O` in this test
0

Query: recorded result category for `Cc1ccc2c(Br)cc(Br)c(O)c2n1` in this test
0

Query: recorded result category for `Oc1ccc(Cl)c2cccnc12` in this test
0

Query: recorded result category for `CCCCN(CCN(CCCC)C(=O)N1CCOCC1)C(=O)N1CCOCC1` in this test
0
